Give IC50, human granulocyte shape change assay (7 pM human GM-CSF) for every item shown.
experimentalTarget: T1, human GM-CSFRα (human, UniProt P15509 23-400)
T1 sequence: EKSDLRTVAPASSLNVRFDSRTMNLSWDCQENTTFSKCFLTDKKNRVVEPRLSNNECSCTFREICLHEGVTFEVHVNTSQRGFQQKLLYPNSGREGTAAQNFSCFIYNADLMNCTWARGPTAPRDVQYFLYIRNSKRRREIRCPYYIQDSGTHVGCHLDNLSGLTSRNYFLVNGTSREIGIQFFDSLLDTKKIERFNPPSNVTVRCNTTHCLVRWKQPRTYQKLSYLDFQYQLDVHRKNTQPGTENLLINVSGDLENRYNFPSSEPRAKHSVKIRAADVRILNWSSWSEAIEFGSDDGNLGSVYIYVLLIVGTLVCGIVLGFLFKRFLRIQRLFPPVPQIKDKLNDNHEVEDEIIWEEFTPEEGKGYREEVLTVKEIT
assayProcedure: cell-based or functional assay
Note: state the figure and append the unit.

Given Antibody 2 (antibody, V domains shown, also called Antibody 02; Ab2) VH: QVQLVQSGAEVKKPGASVKVSCKISGHSLSELSIHWVRQTPTKGFEWMGGFDPEENEIVYAQRFQGRVTMTEDTSIDTAYLTLSSLRSDDTAVYYCSIVGSFSGPALRPWGKGTMVTVSS VL: QAVLTQPSSVSGAPGQRVTISCTGSGSNIGAPYDVSWYQQLPGTAPKLLIYHNNKRPSGVPDRFSASKSGTSASLAITGLQADDEADYYCQSYDSSLSGSVFGGGTKVTVL , respond with its IC50, human granulocyte shape change assay (7 pM human GM-CSF).
20.7 pM

Given Antibody 6, non-germlined IgG4 (antibody, V domains shown) VH: QVQLVQSGAEVKKPGASVKVSCKISGHSLSELSIHWVRQTPTKGFEWMGGFDPEENEIVYAQRFQGRVTMTEDTSIDTAYLTLSSLRSDDTAVYYCSIVGSFSPLTLGLWGKGTMVTVSS VL: QAVLTQPSSVSGAPGQRVTISCTGSGSNIGAPYDVSWYQQLPGTAPKLLIYHNNKRPSGVPDRFSASKSGTSASLAITGLQADDEADYYCATVEAGLSGSVFGGGTKLTVL , respond with its IC50, human granulocyte shape change assay (7 pM human GM-CSF).
13.3 pM

Given Antibody 20 (antibody, V domains shown, also called Ab20) VH: QVQLVQSGAEVKKPGASVKVSCKISGHSLSELSIHWVRQTPTKGFEWMGGFDPEENEIVYAQRFQGRVTMTEDTSIDTAYLTLSSLRSDDTAVYYCSIVGSFSPLTLGLWGKGTMVTVSS VL: QAVLTQPSSVSGAPGQRVTISCTGSGSNIGAPYDVSWYQQLPGTAPKLLIYHNNKRPSGVPDRFSASKSGTSASLAITGLQADDEADYYCATVDEALSGSVFGGGTKVTVL , respond with its IC50, human granulocyte shape change assay (7 pM human GM-CSF).
7.8 pM
